- Tested on: HSkMC (human skeletal muscle cells)
- Measurement Protocol: cytotoxicity call (relative viability < 0.9)
- Stated Conditions: 10 µM
About 1,500 (3.8%) of roughly 39,000 compounds were called active. Many of the other results were omitted from the sample, so actives are more common in it than they were.
Labels: Y for active, N for inactive

{"columns": ["Chemical Structure", "Class Name"],
 "data": [
  ["C[C@@H]1CN([C@H](C)CO)C(=O)c2cccc(NC(=O)Nc3ccc(C(F)(F)F)cc3)c2O[C@H]1CN(C)Cc1ccccc1", "N"],
  ["O=C1NCCCc2occc21", "N"],
  ["C[C@@H]1CN([C@@H](C)CO)C(=O)c2cc(NC(=O)c3ccccc3)ccc2O[C@@H](C)CCCCO[C@@H]1CN(C)S(=O)(=O)c1ccc(F)cc1", "N"],
  ["C[C@@H]1CN([C@@H](C)CO)C(=O)c2cc(NC(=O)NC3CCCCC3)ccc2O[C@@H](C)CCCCO[C@H]1CN(C)Cc1ccc(C(F)(F)F)cc1", "N"],
  ["C[C@H]1CCCCO[C@H](CN(C)Cc2ccc(C(F)(F)F)cc2)[C@@H](C)CN([C@@H](C)CO)C(=O)c2cc(NC(=O)NC3CCCCC3)ccc2O1", "N"],
  ["C[C@@H]1CN([C@@H](C)CO)C(=O)c2cccc(NC(=O)Nc3ccc(C(F)(F)F)cc3)c2O[C@H]1CN(C)Cc1ccccc1", "Y"],
  ["C[C@@H]1CN([C@H](C)CO)C(=O)c2cccc(NC(=O)Nc3ccc(C(F)(F)F)cc3)c2O[C@@H]1CN(C)Cc1ccccc1", "N"],
  ["C[C@H]1CN([C@@H](C)CO)C(=O)c2cccc(NC(=O)Nc3ccc(C(F)(F)F)cc3)c2O[C@@H]1CN(C)Cc1ccccc1", "Y"],
  ["COc1ccc(NC(=O)N(C)C[C@H]2Oc3c(NC(=O)C4CC4)cccc3C(=O)N([C@@H](C)CO)C[C@@H]2C)cc1", "N"],
  ["COC(=O)[C@@]12OC[C@]34[C@H]([C@@H](O)[C@@H]1O)[C@@]1(C)CC(=O)C(=O)[C@H](C)[C@@H]1C[C@H]3OC(=O)[C@H](OC(=O)/C=C(\\C)C(C)C)[C@@H]24", "Y"],
  ["C[C@H](CO)N1C[C@H](C)[C@@H](CN(C)Cc2ccccc2)Oc2c(NC(=O)Nc3ccc(C(F)(F)F)cc3)cccc2C1=O", "N"]
]}
